# system name: T1, human MSLN-FL-his protein (human, UniProt Q13421 296-580)
# T1 construct: made in HEK293E cells, purified on nickel column; also called hMSLN-FL-his; human MSLN full-length protein; not shown: His tag
# T1 sequence (Q13421 other isoform, or with tags, fused parts or gaps): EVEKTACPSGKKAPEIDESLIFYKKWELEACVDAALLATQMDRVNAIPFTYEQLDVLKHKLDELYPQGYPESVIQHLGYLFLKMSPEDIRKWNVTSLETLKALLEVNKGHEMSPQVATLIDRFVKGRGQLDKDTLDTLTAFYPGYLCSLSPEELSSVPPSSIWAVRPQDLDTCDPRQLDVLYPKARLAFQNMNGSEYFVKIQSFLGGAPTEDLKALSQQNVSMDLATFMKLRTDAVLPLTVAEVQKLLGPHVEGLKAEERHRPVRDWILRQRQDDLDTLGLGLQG
# test name: competitive ELISA; row F2.39.3; further: test concentration or dose not given here
endpoint name: competition rate (%)

1) S009-F2.47.1 (antibody, human IgG1, kappa, V domains shown, human-murine chimeric antibody, human IgG1/kappa constant regions) VH: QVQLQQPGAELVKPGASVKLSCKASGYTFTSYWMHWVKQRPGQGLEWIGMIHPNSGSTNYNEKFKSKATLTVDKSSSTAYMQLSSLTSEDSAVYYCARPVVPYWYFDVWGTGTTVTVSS VL: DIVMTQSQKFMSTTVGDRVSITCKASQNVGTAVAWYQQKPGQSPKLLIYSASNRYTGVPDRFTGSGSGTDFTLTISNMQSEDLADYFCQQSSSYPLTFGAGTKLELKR: 23
2) S009-F1.35.24 (antibody, human IgG1, kappa, V domains shown, human-murine chimeric antibody, human IgG1/kappa constant regions) VH: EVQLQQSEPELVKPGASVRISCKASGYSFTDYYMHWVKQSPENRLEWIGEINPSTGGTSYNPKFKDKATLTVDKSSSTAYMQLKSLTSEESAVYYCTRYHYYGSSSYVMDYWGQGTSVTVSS VL: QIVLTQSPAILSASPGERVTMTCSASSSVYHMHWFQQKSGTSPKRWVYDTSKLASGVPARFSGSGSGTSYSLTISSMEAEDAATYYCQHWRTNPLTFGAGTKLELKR: 67
3) S009-F1.2.12 (antibody, human IgG1, kappa, V domains shown, human-murine chimeric antibody, human IgG1/kappa constant regions) VH: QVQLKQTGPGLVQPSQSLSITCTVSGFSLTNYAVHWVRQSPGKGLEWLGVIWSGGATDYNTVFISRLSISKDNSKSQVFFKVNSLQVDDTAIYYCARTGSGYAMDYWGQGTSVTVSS VL: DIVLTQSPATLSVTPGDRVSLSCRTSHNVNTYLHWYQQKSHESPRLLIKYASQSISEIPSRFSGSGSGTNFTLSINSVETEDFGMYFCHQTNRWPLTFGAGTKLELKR: 2

Source listed as patent US20250250357A1.
